Numbers sourced from patent US20230235048A1.

- targetOfAssay: T1, human sortilin on the cell surface (recombinant huSortilin on HEK 293 cells; endogenous on U251MG cells) (human, UniProt Q99523 78-831)
- T1 construct: whole, on cells; also called huSortilin expressing HEK293 cells; cell surface huSortilin
- T1 sequence (looked up): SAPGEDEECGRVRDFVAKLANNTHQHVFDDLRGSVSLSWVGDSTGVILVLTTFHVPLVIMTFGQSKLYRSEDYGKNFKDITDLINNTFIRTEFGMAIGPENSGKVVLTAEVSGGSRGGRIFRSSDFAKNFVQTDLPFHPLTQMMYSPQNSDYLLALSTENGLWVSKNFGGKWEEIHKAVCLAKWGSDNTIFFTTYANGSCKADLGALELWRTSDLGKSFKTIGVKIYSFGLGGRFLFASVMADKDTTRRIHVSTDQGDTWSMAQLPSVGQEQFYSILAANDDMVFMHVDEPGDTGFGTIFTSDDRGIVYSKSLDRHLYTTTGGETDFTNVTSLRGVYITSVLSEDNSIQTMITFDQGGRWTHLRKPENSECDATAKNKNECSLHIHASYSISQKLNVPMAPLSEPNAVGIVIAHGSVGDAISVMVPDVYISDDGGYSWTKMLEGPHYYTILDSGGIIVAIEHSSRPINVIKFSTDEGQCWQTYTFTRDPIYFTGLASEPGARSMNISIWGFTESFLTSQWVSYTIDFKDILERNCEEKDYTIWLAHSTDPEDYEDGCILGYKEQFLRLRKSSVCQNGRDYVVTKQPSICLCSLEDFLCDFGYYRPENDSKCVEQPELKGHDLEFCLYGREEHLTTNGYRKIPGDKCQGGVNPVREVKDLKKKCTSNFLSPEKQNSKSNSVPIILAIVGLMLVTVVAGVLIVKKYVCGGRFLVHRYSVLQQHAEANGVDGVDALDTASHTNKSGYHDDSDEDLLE
- assayProtocol: cell-based blocking titration (flow cytometry), huSortilin HEK293 cells; blocked ligand 30 nM huPGRN-Biotin
# % Max blocking at 11nM mAb per record follows
State the answer as a number, implicitly in %.

Completed entries (count: 2):
Assign % Max blocking at 11nM mAb to the following record: mouse monoclonal antibody 2C14 (antibody, mouse IgG1, V domains shown, mouse IgG1, kappa) VH: EVQLVESGGDLVKPGGSLKLSCAASGFTFNTHGMSWVRQTPDKSLEWVATISTGGFYTSYPDSVKGRFTISRDNAKNTLFLQMSSLKSEDTAMYYCAKSSSHWYFDVWGTGTTVTVSS VL: DILMTQSPSSMSVSLGDTVSITCHASQGISSNIGWLQQKPGKSFKGLIYHGTNLEDGVPSRFSGSGSGADYSLTISSLEYEDFADYYCVQYAHFPYTFGGGTKLEIK
64

Name the recorded % Max blocking at 11nM mAb of the binder listed here: mouse monoclonal antibody 9N18 (antibody, mouse IgG2b, V domains shown, mouse IgG2b, kappa) VH: EIQLQQSGPELVKPGASVKISCKASGYSFTGYYMNWVKQSPEKSLEWIGEINPITGGTTYNQNFKAKATLTVDKSSSTAYLQLRSLTSEDSAVYYCASDYFGSNSWFAYWGQGTLVTVSA VL: DVLMTQTPLSLPVSLGDQASISCRSSQSIVHRNGNTYLEWYLQKPGQSPKLLIYKVSNRFSGVPDRFSGSGSGTDFTLRISRVEAEDLGVYYCFQGSHVPYTFGGGTKLEIK
45

// below: % Max blocking at 11nM mAb requested for another binder
Give recorded % Max blocking at 11nM mAb. mouse monoclonal antibody 5M13 (antibody, mouse IgG1, V domains shown, mouse IgG1, kappa) VH: DVQLQESGPGLVKPSQSLSLTCTVTGYSITSDYAWNWIRQFPGNKLEWMGYISSSGSTSYNPSLKSRISVTRDTSKNQFFLQLNFVTAEDTATYYCAFVTTTMDYWGQGTSVTVSS VL: DVVMTQTPLSLPVSLGDQASISCRSSQSLVHSNGNTYLHWYLQKPGQSPKLLIYTVSNRFSGVPDRFSGSGSGTDFTLKISRVEAEDLGVYFCSQSTHVPFTFGSGTKLEIK
0
